// data source = patent US20240148821A1

Target: protein-protein interaction between Kras and SOS1 (biotin-tagged human Kras loaded with GDP, His-tagged human SOS1) (Homo sapiens (Human), UniProt P01116, G12D)
Assay: Protein-protein interaction inhibition between Kras and SOS1 (KrasG12D-SOS PPI) using AlphaScreen
Format: biochemical
Conditions: AlphaScreen; biotin-tagged human Kras loaded with GDP, His-tagged human SOS1; read-out: KRAS G12D-SOS PPI IC50
Numbered stars: 1 amine (or outer) side, 2 acyl side, 3 side chain; on linkers, the order of the positions; unused ones are H or OH. Bridge positions count the residues as written; N and C are the ends. Square brackets hold non-standard residues; d marks the D form. Peptide text beside a SMILES is read from it. * marks the point of attachment. X45 = CN([C@@H](CC=C1CN(C(=O)OC(C)(C)C)C1)C(=O)[*:2])[*:1]; hPhe(3-Cl-4-CF3) = N[C@@H](CCc1ccc(C(F)(F)F)c(Cl)c1)C(=O)O; NMePhe(4-Cl) = CN[C@@H](Cc1ccc(Cl)cc1)C(=O)O; NMePhe(4-Me) = CN[C@@H](Cc1ccc(C)cc1)C(=O)O; NMeAla(cPent) = CN[C@@H](CC1CCCC1)C(=O)O; NMeGly(cPent) = CN[C@H](C(=O)O)C1CCCC1; NMeCha = CN[C@@H](CC1CCCCC1)C(=O)O; NMeChg = CN[C@H](C(=O)O)C1CCCCC1; NMeT = CN[C@H](C(=O)O)[C@@H](C)O; NMeD = CN[C@@H](CC(=O)O)C(=O)O; NMeL = CN[C@@H](CC(C)C)C(=O)O; NMeV = CN[C@H](C(=O)O)C(C)C; d(β3hA) = C[C@@H](N)CC(=O)O; Morpholide = C1CN(*)CCO1; NMeA = CN[C@@H](C)C(=O)O; Piperidide = C1CCN(*)CC1; Ac5c = NC1(C(=O)O)CCCC1; Aze = O=C(O)[C@@H]1CCN1; Sar = CNCC(=O)O
Please respond with Met when measured IC50 is strictly beneath 10 nM, and with Not met in all other cases.

INSERT INTO results (compound, category_label) VALUES
  ('CC[C@H](C)[C@@H]1NC(=O)[C@H](CC(C)C)N(C)C(=O)C[C@@H](C(=O)N2CCCCC2)N(C)C(=O)[C@H]([C@@H](C)OC)N(C)C(=O)C2(CCCC2)NC(=O)[C@@H]2CCCN2C(=O)[C@H](CCc2ccc(C(F)(F)F)c(Cl)c2)NC(=O)CN(C)C(=O)[C@H](CC2CCCCC2)N(C)C(=O)[C@@H]2CCN2C(=O)[C@H](C)N(C)C1=O [Compound 639] ([NMeL]I[NMeA][Aze][NMeCha][Sar][hPhe(3-Cl-4-CF3)]P[Ac5c][NMeT](Me)[NMeD]-Piperidide; lactam N-11)', 'Not met'),
  ('CC[C@H](C)[C@@H]1NC(=O)[C@H](C(C)C)N(C)C(=O)C[C@@H](C)NC(=O)[C@H](C(C)C)N(C)C(=O)C2(CCCC2)NC(=O)[C@H](CC(C)C)N(C)C(=O)[C@H](CCc2ccc(C(F)(F)F)c(Cl)c2)NC(=O)CN(C)C(=O)[C@H](Cc2ccc(Cl)cc2)N(C)C(=O)CN(C)C(=O)CN(C)C1=O [Compound 1069] (cyclo([Ac5c][NMeV][d(β3hA)][NMeV]I[Sar][Sar][NMePhe(4-Cl)][Sar][hPhe(3-Cl-4-CF3)][NMeL]))', 'Not met'),
  ('CC[C@H](C)[C@@H]1NC(=O)[C@H](CC(C)C)N(C)C(=O)C[C@@H](C(=O)N2CCCCC2)N(C)C(=O)[C@H](C2CCCCC2)N(C)C(=O)C2(CCCC2)NC(=O)[C@H](CC=C2CN(C(=O)OC(C)(C)C)C2)N(C)C(=O)[C@H](CCc2ccc(C(F)(F)F)c(Cl)c2)NC(=O)CN(C)C(=O)[C@H](CC2CCCCC2)N(C)C(=O)CN(C)C(=O)CN(C)C1=O [Compound 2050] ([NMeL]I[Sar][Sar][NMeCha][Sar][hPhe(3-Cl-4-CF3)][X45][Ac5c][NMeChg][NMeD]-Piperidide; lactam N-11)', 'Not met'),
  ('CC[C@H](C)[C@@H]1NC(=O)[C@H](CC2CCCC2)N(C)C(=O)C[C@@H](C(=O)N2CCOCC2)N(C)C(=O)[C@H](C2CCCC2)N(C)C(=O)C2(CCCC2)NC(=O)[C@@H]2CCCN2C(=O)[C@H](CCc2ccc(C(F)(F)F)c(Cl)c2)NC(=O)CN(C)C(=O)[C@H](CC2CCCCC2)N(C)C(=O)[C@@H]2CCN2C(=O)[C@H](C)NC1=O [Compound 1176] ([NMeAla(cPent)]IA[Aze][NMeCha][Sar][hPhe(3-Cl-4-CF3)]P[Ac5c][NMeGly(cPent)][NMeD]-Morpholide; lactam N-11)', 'Met'),
  ('CC[C@H](C)[C@@H]1NC(=O)[C@H](CC(C)C)N(C)C(=O)C[C@@H](C(=O)N2CCCCC2)N(C)C(=O)[C@H](C2CCCCC2)N(C)C(=O)C2(CCCC2)NC(=O)[C@@H]2CCCN2C(=O)[C@H](CCc2ccc(C(F)(F)F)c(Cl)c2)NC(=O)CN(C)C(=O)[C@H](Cc2ccc(C)cc2)N(C)C(=O)[C@@H]2CCN2C(=O)[C@H](C)N(C)C1=O [Compound 1795] ([NMeL]I[NMeA][Aze][NMePhe(4-Me)][Sar][hPhe(3-Cl-4-CF3)]P[Ac5c][NMeChg][NMeD]-Piperidide; lactam N-11)', 'Met');

###

Parameter: IC50. Scope: all listed entries.
Biological target: protein-protein interaction between Kras and SOS1 (biotin-tagged human Kras loaded with GDP, His-tagged human SOS1) (Homo sapiens (Human), UniProt P01116, G12D)
Assay: Protein-protein interaction inhibition between Kras and SOS1 (KrasG12D-SOS PPI) using AlphaScreen;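 further: kras produced in E. coli, Ni-coupled donor beads and streptavidin acceptor beads, excitation 680 nm with emission detected at 520–620 nm via singlet oxygen transfer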
Format: biochemical
Details: AlphaScreen; biotin-tagged human Kras loaded with GDP, His-tagged human SOS1; read-out: KRAS G12D-SOS PPI IC50
Bridge positions count the residues as written; N and C are the ends. Square brackets hold non-standard residues; d marks the D form. Peptide text beside a SMILES is read from it. * marks the point of attachment. hPhe(3-Cl-4-CF3) = N[C@@H](CCc1ccc(C(F)(F)F)c(Cl)c1)C(=O)O; NMePhe(4-Cl) = CN[C@@H](Cc1ccc(Cl)cc1)C(=O)O; NMeGly(cBu) = CN[C@H](C(=O)O)C1CCC1; NMeCha = CN[C@@H](CC1CCCCC1)C(=O)O; Hyp = O=C(O)[C@@H]1C[C@@H](O)CN1; NMeChg = CN[C@H](C(=O)O)C1CCCCC1; NMeI = CC[C@H](C)[C@H](NC)C(=O)O; NMeD = CN[C@@H](CC(=O)O)C(=O)O; NMeL = CN[C@@H](CC(C)C)C(=O)O; NMeV = CN[C@H](C(=O)O)C(C)C; d(β3hA) = C[C@@H](N)CC(=O)O; Azetidin(1-yl) = C1CN(*)C1; NMeA = CN[C@@H](C)C(=O)O; Piperidide = C1CCN(*)CC1; Pyrrolidide = C1CCN(*)C1; Ac5c = NC1(C(=O)O)CCCC1; Aze = O=C(O)[C@@H]1CCN1; Ac4c = NC1(C(=O)O)CCC1; Sar = CNCC(=O)O
Measure Name: IC50 (nM)

INSERT INTO results (compound, measure_name, measurement) VALUES
  ('CC[C@H](C)[C@@H]1NC(=O)[C@H](CC(C)C)N(C)C(=O)C[C@@H](C(=O)N2CCC2)N(C)C(=O)[C@H]([C@@H](C)CC)N(C)C(=O)C2(CCCC2)NC(=O)[C@@H]2CCCN2C(=O)[C@H](CCc2ccc(C(F)(F)F)c(Cl)c2)NC(=O)CN(C)C(=O)[C@H](CC2CCCCC2)N(C)C(=O)[C@@H]2CCN2C(=O)[C@H](C)N(C)C1=O [Compound 150] ([NMeL]I[NMeA][Aze][NMeCha][Sar][hPhe(3-Cl-4-CF3)]P[Ac5c][NMeI][NMeD]-{Azetidin(1-yl)}; lactam N-11)', 'IC50', 1.3),
  ('CC[C@H](C)[C@@H]1NC(=O)[C@H](CC(C)C)N(C)C(=O)C[C@@H](C(=O)N(C)C)N(C)C(=O)[C@H]([C@@H](C)CC)N(C)C(=O)C2(CCCC2)NC(=O)[C@@H]2CCCN2C(=O)[C@H](CCc2ccc(C(F)(F)F)c(Cl)c2)NC(=O)CN(C)C(=O)[C@H](C2CCC2)N(C)C(=O)[C@@H]2CCN2C(=O)[C@H](C)N(C)C1=O [Compound 1961] ([NMeL]I[NMeA][Aze][NMeGly(cBu)][Sar][hPhe(3-Cl-4-CF3)]P[Ac5c][NMeI][NMeD]-NMe2; lactam N-11)', 'IC50', 1.8),
  ('CCO[C@@H]1C[C@H]2C(=O)NC3(CCC3)C(=O)N(C)[C@@H](C3CCCCC3)C(=O)N(C)[C@H](C(=O)N3CCCC3)CC(=O)N(C)[C@@H](CC(C)C)C(=O)N[C@@H]([C@@H](C)CC)C(=O)N(C)CC(=O)N(C)CC(=O)N(C)[C@@H](CC3CCCCC3)C(=O)N(C)CC(=O)N[C@@H](CCc3ccc(C(F)(F)F)c(Cl)c3)C(=O)N2C1 [Compound 1241] ([NMeL]I[Sar][Sar][NMeCha][Sar][hPhe(3-Cl-4-CF3)][Hyp](Et)[Ac4c][NMeChg][NMeD]-Pyrrolidide; lactam N-11)', 'IC50', 0.5),
  ('CC[C@H](C)[C@@H]1NC(=O)[C@H](CC(C)C)N(C)C(=O)C[C@@H](C(=O)N2CCCCC2)N(C)C(=O)[C@H](C(C)C)N(C)C(=O)C2(CCCC2)NC(=O)[C@@H]2CCCN2C(=O)[C@H](CCc2ccc(C(F)(F)F)c(Cl)c2)NC(=O)CN(C)C(=O)[C@H](CC2CCCCC2)N(C)C(=O)[C@@H]2CCN2C(=O)[C@@H]2CCN2C1=O [Compound 318] ([NMeL]I[Aze][Aze][NMeCha][Sar][hPhe(3-Cl-4-CF3)]P[Ac5c][NMeV][NMeD]-Piperidide; lactam N-11)', 'IC50', 19),
  ('CC[C@H](C)[C@@H]1NC(=O)[C@H](CC(C)C)N(C)C(=O)C[C@@H](C)NC(=O)[C@H](C(C)C)N(C)C(=O)C2(CCCC2)NC(=O)[C@@H]2CCCN2C(=O)[C@H](CCc2ccc(C(F)(F)F)c(Cl)c2)NC(=O)CN(C)C(=O)[C@H](Cc2ccc(Cl)cc2)N(C)C(=O)[C@@H]2CCN2C(=O)CN(C)C1=O [Compound 207] (cyclo([Ac5c][NMeV][d(β3hA)][NMeL]I[Sar][Aze][NMePhe(4-Cl)][Sar][hPhe(3-Cl-4-CF3)]P))', 'IC50', 3);
